Measured self-cleavage kobs at 10000 uM GlcN6P of individual entries
B1: glmS ribozyme (parent)
chain: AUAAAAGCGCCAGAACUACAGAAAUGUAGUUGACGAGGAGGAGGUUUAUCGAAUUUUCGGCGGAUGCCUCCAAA

Variants of: B1
test.details: self-cleavage kobs at 10000 uM GlcN6P; higher = faster cleavage; RNA array
conditions.used: with glucosamine-6-phosphate
Variants at the floor of the assay were thinned out.
reported.property: self-cleavage kobs at 10000 uM GlcN6P (s⁻¹)

mutation_name="U31G C50G C67U" qualifying_sign== value_observed=0.000109
mutation_name="G37A G43U" qualifying_sign== value_observed=4.34e-05
mutation_name="G32A A64G" qualifying_sign== value_observed=0.00267
mutation_name="U31A A33G A39U G43A A48U" qualifying_sign=< value_observed=1e-05
mutation_name="U65A C71A" qualifying_sign== value_observed=0.00104
mutation_name="U31A A39C U56G" qualifying_sign== value_observed=0.00147
mutation_name="G13U A39C" qualifying_sign== value_observed=0.000158
mutation_name="A15C A64G C67G C68U" qualifying_sign=< value_observed=1e-05
mutation_name="G51U U57C" qualifying_sign=< value_observed=1e-05
mutation_name="A15G C70G" qualifying_sign== value_observed=0.00033
mutation_name="G38C C50A" qualifying_sign=< value_observed=1e-05
mutation_name="A36U C70A" qualifying_sign== value_observed=2.74e-05
mutation_name="A39U G66U" qualifying_sign== value_observed=0.00372
mutation_name="A6C G29C A36G" qualifying_sign=< value_observed=1e-05
mutation_name="G29U U30G" qualifying_sign== value_observed=0.00493
mutation_name="G13C C16U C67A" qualifying_sign== value_observed=3.41e-05
mutation_name="U45G C70U" qualifying_sign== value_observed=0.0102
mutation_name="A6G A36C G41U" qualifying_sign=< value_observed=1e-05
mutation_name="A36C A39U C67U" qualifying_sign=< value_observed=1e-05
mutation_name="G9C G62U" qualifying_sign=< value_observed=1e-05
mutation_name="G13U G37C G43C" qualifying_sign=< value_observed=1e-05
mutation_name="A6G G51U U57C" qualifying_sign=< value_observed=1e-05
mutation_name="C34A U47G U54G G59U C68G" qualifying_sign== value_observed=0.000474
mutation_name="G7U A39G" qualifying_sign=< value_observed=1e-05
mutation_name="C50U C71U" qualifying_sign== value_observed=4.57e-05
mutation_name="G32U C34G" qualifying_sign=< value_observed=1e-05
mutation_name="U57C A64G" qualifying_sign== value_observed=0.000179
mutation_name="G40A U54C" qualifying_sign== value_observed=0.00467
mutation_name="G37A G51A U55G" qualifying_sign=< value_observed=1e-05
mutation_name="G38C G44U C58U A64U" qualifying_sign=< value_observed=1e-05
mutation_name="U45A G59U" qualifying_sign== value_observed=0.000152
mutation_name="A6C C8U A14G" qualifying_sign=< value_observed=1e-05
mutation_name="G32A U55G" qualifying_sign== value_observed=0.00326
mutation_name="G13A U56G" qualifying_sign== value_observed=0.000696
mutation_name="A12C A14G U54A" qualifying_sign== value_observed=0.0236
mutation_name="C50G G60C U69A" qualifying_sign== value_observed=4.94e-05
mutation_name="G7C U31A" qualifying_sign=< value_observed=1e-05
mutation_name="A15C U55G C70A" qualifying_sign== value_observed=3.54e-05
mutation_name="A15U U54G U65G" qualifying_sign== value_observed=0.00045
mutation_name="G13C A36G G51A U55A" qualifying_sign=< value_observed=1e-05
mutation_name="U31G U49G" qualifying_sign== value_observed=0.000157
mutation_name="G9A G41U U56G" qualifying_sign=< value_observed=1e-05
mutation_name="U30A C61U" qualifying_sign=< value_observed=1e-05
mutation_name="A14G U55C" qualifying_sign== value_observed=0.0522
mutation_name="G66A C71G" qualifying_sign== value_observed=0.00264
mutation_name="G40C G43A" qualifying_sign=< value_observed=1e-05
mutation_name="U54A C58A" qualifying_sign== value_observed=0.000547
mutation_name="C11G U57G" qualifying_sign=< value_observed=1e-05
mutation_name="G13U U30G G35C" qualifying_sign=< value_observed=1e-05
mutation_name="G29A C70U" qualifying_sign== value_observed=0.0021
mutation_name="G44U G63U" qualifying_sign=< value_observed=1e-05
mutation_name="G35A U56G" qualifying_sign=< value_observed=1e-05
mutation_name="A6C C16U" qualifying_sign== value_observed=8.88e-05
mutation_name="A14C A15C" qualifying_sign== value_observed=0.00157
mutation_name="G35A U49G C61U" qualifying_sign=< value_observed=1e-05
mutation_name="C11U G37U G43U G63U" qualifying_sign=< value_observed=1e-05
mutation_name="U46C C58A" qualifying_sign== value_observed=0.00022
mutation_name="U54C C70U" qualifying_sign== value_observed=0.00879
mutation_name="A12C G32A G38A" qualifying_sign=< value_observed=1e-05
mutation_name="A36C G51C C71G" qualifying_sign=< value_observed=1e-05
mutation_name="A15U G29A G43A" qualifying_sign=< value_observed=1e-05
mutation_name="G9C G51C" qualifying_sign=< value_observed=1e-05
mutation_name="C50U G59U" qualifying_sign=< value_observed=1e-05
mutation_name="C50U G51U" qualifying_sign=< value_observed=1e-05
mutation_name="C11U C61U" qualifying_sign=< value_observed=1e-05
mutation_name="C50U A64G" qualifying_sign== value_observed=0.000141
mutation_name="A14U A53C" qualifying_sign== value_observed=0.00105
mutation_name="G32U U55G U56G" qualifying_sign== value_observed=0.000376
mutation_name="A48U G66A" qualifying_sign== value_observed=0.00027
mutation_name="A33U U55A" qualifying_sign== value_observed=0.000105
mutation_name="G41C C58A" qualifying_sign=< value_observed=1e-05
mutation_name="G32C U54G" qualifying_sign== value_observed=7.5e-05
mutation_name="A12U A53C" qualifying_sign== value_observed=0.0183
mutation_name="G7U G60U" qualifying_sign=< value_observed=1e-05
mutation_name="A12C U30G G32U A33C C58U" qualifying_sign=< value_observed=1e-05
mutation_name="G7A A42U" qualifying_sign=< value_observed=1e-05
mutation_name="A39C A48U G59U" qualifying_sign=< value_observed=1e-05
mutation_name="A53C C68U" qualifying_sign== value_observed=8.67e-05
mutation_name="A14C U30A U47G C70U" qualifying_sign== value_observed=8.66e-05
mutation_name="A39C A64C" qualifying_sign== value_observed=4.27e-05
mutation_name="C8A C34U U47C C67U" qualifying_sign=< value_observed=1e-05
mutation_name="A15G G44U C58U C67A" qualifying_sign== value_observed=2.9e-05
mutation_name=A28U qualifying_sign== value_observed=0.0176
mutation_name="G9A U65C" qualifying_sign=< value_observed=1e-05
mutation_name="U31G A53C" qualifying_sign== value_observed=0.00219
mutation_name="C34A A48C" qualifying_sign=< value_observed=1e-05
mutation_name="G7A A12U" qualifying_sign== value_observed=7.91e-05
mutation_name="G37C G41U U46C" qualifying_sign=< value_observed=1e-05
mutation_name="C34A U49C" qualifying_sign=< value_observed=1e-05
mutation_name="A14G G41A" qualifying_sign== value_observed=0.00645
mutation_name="A12G A14U C58A" qualifying_sign== value_observed=0.000276
